# tested on: full length active recombinant SYK enzyme (Homo sapiens)
# Construct: full length active recombinant SYK enzyme (Millipore, Calif.)
# experiment summary: Inhibition of Syk tyrosine phosphorylation activity (LANCE TR-FRET kinase assay)
assay readout: IC50

>>> result("NC(=O)c1cc(F)c(N[C@@H]2CCCC[C@@H]2N)nc1Nc1ccc(N2CCCC2)cc1")
"10 to 100 nM"

Then there is this compound:
[ask] Which IC50 reading was recorded for the compound NC(=O)c1cc(F)c(N[C@H](CC2CC2)C(N)=O)nc1Nc1cnc2ccccc2c1 ?
[reply] 1 to 10 nM

###

# IC50 listing for each entry below
# tested on: full length active recombinant SYK enzyme (Homo sapiens)
# Construct: full length active recombinant SYK enzyme (Millipore, Calif.)
# experiment summary: Inhibition of Syk tyrosine phosphorylation activity (LANCE TR-FRET kinase assay)

Please review the following examples before continuing.
>>> result("NC(=O)c1cc(F)c(N[C@@H]2CCCC[C@@H]2N)nc1Nc1ccc2ccncc2c1")
"1 to 10 nM"
>>> result("CC[C@@H](Nc1nc(Nc2cnc3cccnc3c2)c(C(N)=O)cc1F)C(N)=O")
"100 to 1000 nM"
>>> result("NC(=O)c1cc(F)c(N[C@@H]2CCCC[C@@H]2N)nc1Nc1cnc2ncccc2c1")
"1 to 10 nM"

Then there is this compound:
[ask] Which IC50 reading was recorded for the compound NC(=O)c1cc(F)c(N[C@H](CC2CC2)C(N)=O)nc1Nc1ccc2cccnc2c1 ?
[reply] 10 to 100 nM

###

# pIC50 listing for each entry below
# tested on: full length active recombinant SYK enzyme (Homo sapiens)
# Construct: full length active recombinant SYK enzyme (Millipore, Calif.)
# experiment summary: Inhibition of Syk tyrosine phosphorylation activity (LANCE TR-FRET kinase assay)
pIC50: −log10 of the molar value.

[ask] Look up pIC50 with full length active recombinant SYK enzyme (Homo sapiens) for this compound: Cc1cc(Nc2cc(N[C@H](Cc3ccc(F)cc3)C(N)=O)c(F)cc2C(N)=O)sn1 [Example 27]
[reply] 7.00 to 8.00

[ask] Look up pIC50 with full length active recombinant SYK enzyme (Homo sapiens) for this compound: NC(=O)c1cc(F)c(N[C@@H]2CCCC[C@@H]2N)nc1Nc1cccc2ncccc12 [Example 73]
[reply] 8.00 to 9.00

###

# tested on: full length active recombinant SYK enzyme (Homo sapiens)
# Construct: full length active recombinant SYK enzyme (Millipore, Calif.)
# experiment summary: Inhibition of Syk tyrosine phosphorylation activity (LANCE TR-FRET kinase assay)
assay readout: IC50

Please review the following examples before continuing.
>>> result("CC[C@@H](Nc1ccc(C(N)=O)c(Nc2cc(C)ns2)n1)C(N)=O")
"10 to 100 nM"
>>> result("NC(=O)c1cc(F)c(N[C@@H]2CCCC[C@@H]2N)nc1Nc1ccnc(-n2cccn2)c1")
"10 to 100 nM"
>>> result("NC(=O)c1cc(F)c(N[C@@H]2CCCC[C@@H]2N)nc1Nc1cccc(-n2cnnn2)c1")
"1 to 10 nM"
>>> result("NC(=O)c1cc(F)c(N[C@H]2[C@@H](N)CCCC2(F)F)nc1Nc1cccc(-n2cccn2)c1")
"1 to 10 nM"
>>> result("NC(=O)c1ccc(N[C@@H]2CCCC[C@@H]2N)nc1Nc1cncc(F)c1")
"1 to 10 nM"
>>> result("NC(=O)c1cc(F)c(N[C@@H]2CCCC[C@@H]2N)nc1Nc1cncc(-n2cccn2)c1")
"> 1000 nM"
>>> result("Cc1cc(Nc2cc(NC[C@H](C)N)ccc2C(N)=O)sn1")
"10 to 100 nM"

Then there is this molecule:
[ask] Which IC50 reading was recorded for the molecule NC(=O)c1cc(F)c(N[C@H]2[C@@H](N)CCCC2(F)F)nc1Nc1cccc(-c2ncccn2)c1 ?
[reply] 10 to 100 nM
